- systemTested: T1, hPRLR.mmh (soluble monomeric human PRLR) (Homo sapiens, UniProt P16471)
- T1 construct: soluble monomeric (hPRLR.mmh); mmh (myc-myc-hexahistidine)
- T1 sequence (P16471 with tags, fused parts or gaps): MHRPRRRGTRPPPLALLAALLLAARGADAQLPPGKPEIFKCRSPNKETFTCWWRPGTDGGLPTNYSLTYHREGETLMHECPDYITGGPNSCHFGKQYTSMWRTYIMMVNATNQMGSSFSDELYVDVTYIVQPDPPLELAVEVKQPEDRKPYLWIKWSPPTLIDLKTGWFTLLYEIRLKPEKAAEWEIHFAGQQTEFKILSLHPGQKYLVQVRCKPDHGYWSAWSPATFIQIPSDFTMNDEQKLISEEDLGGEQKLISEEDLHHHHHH
- protocolNotes: Surface plasmon resonance (Biacore T200), mAb-capture format
- Assay type: binding
- experimentalSetup: 25° C., antibody-capture format, analyte hPRLR.mmh
reportedEndpoint: pKd
Just the number, please; pKd means minus log10 of the concentration in mol/L.

pKd in this record for H1H6959N2: human IgG1 Fc form of H2M6959N2; anti-PRLR; HCVR/LCVR SEQ ID NOs 306/314 (antibody, V domains shown, human IgG1 Fc) VH: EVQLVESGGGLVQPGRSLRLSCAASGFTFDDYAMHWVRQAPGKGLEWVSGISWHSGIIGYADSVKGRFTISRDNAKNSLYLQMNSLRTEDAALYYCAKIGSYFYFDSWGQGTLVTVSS VL: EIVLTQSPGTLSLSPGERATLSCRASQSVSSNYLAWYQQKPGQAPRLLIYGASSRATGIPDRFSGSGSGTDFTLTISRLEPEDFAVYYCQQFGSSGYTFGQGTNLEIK : 6.69

// provenance: patent US9688764B2
